TARGET_OR_SYSTEM: T1, human mesothelin (MSLN) on cells (human, UniProt Q13421 296-598)
T1 construct: whole, on cells; One molecule is used for human MSLN on transfected CHO cells and on HeLa cells; the cell line is named under assay; also called huMSLN
T1 sequence (Q13421 other isoform, or with tags, fused parts or gaps limits assumed): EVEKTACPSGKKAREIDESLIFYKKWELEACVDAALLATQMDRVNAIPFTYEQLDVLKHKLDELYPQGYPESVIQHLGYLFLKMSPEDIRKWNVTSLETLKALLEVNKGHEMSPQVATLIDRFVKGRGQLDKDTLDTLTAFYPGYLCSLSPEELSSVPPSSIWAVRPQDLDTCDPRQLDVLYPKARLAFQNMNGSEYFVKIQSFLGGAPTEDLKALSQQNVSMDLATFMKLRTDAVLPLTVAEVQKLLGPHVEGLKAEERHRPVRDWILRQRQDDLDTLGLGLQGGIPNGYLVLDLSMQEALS
EXPERIMENTAL_PROTOCOL: flow cytometry, supernatant diluted 1:5, CHO cells expressing human MSLN
Reported fold over background mean fluorescence intensity (MFI) values follow for various binders
PROPERTY: fold over background mean fluorescence intensity (MFI) (fold over background)

BINDER	MEASURED
anti-MSLN single domain antibody clone 394901 (VHH, Human VH single domain; tested as antibody-containing supernatant) VHH: EVQLLESGGGLIQPGGSLRLSCAASGFSFSSYAMSWVRQAPGKGLEWVSSISSSGDSTYYADSVKGRFTISRDNSKNTLYLQMNSLRAEDTAVYYCAKPPSYYDFLSDPDYWGQGTLVTVSS	400
anti-MSLN single domain antibody clone 394910 (VHH, Human VH single domain; tested as antibody-containing supernatant) VHH: EVQLLESGGGLVQPGGSLRLSCAASGFSFSSYAMSWVRQAPGKGLEWVSSISSSGDSTYYADSVKGRFTISRDNSKNTLYLQMNSLRAEDTAVYYCAKPPSYYDFLSDPDYWGQGTLVTVSS	313
